target: FGFR3 (UniProt P22607); assay: phosphorylation enrichment, bacterial display (enrichment ratio); higher = better substrate or ligand; peptides without Tyr show the background;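 further: 11-residue human phosphosite peptides and single-mutation variants displayed on the E. coli surface, counted by deep sequencing, each peptide's frequency after selection divided by its frequency in the unselected input library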;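 further: frequency after pTyr selection over input frequency; kinase dosed for 20-30% of maximal phosphorylation in three min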
Sequence (P22607 whole entry, looked up): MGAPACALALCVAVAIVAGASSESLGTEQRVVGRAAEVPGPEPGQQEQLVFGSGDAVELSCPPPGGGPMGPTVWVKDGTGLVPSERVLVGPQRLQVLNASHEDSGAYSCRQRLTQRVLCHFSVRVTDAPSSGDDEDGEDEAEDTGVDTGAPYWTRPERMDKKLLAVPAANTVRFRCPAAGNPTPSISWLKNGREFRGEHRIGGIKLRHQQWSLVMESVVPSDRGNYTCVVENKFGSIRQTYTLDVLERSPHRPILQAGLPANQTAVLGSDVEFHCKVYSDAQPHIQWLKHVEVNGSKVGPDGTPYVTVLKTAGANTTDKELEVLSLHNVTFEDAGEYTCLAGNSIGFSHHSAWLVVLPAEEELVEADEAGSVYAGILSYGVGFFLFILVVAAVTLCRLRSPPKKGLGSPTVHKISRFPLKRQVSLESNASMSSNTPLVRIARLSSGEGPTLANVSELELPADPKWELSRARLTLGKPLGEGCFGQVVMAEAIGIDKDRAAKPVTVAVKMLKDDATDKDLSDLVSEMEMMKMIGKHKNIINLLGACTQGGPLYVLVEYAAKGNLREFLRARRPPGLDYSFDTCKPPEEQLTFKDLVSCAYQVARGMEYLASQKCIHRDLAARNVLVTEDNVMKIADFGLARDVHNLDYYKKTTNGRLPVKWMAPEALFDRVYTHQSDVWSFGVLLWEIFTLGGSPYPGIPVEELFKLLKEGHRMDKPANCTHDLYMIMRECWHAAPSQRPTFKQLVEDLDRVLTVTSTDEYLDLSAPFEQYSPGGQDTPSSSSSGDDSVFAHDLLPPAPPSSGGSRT

- Construct sequence: "SWVVPYEPPEV [TP53_Y220_V216W]"
  Assay target: "FGFR3 (UniProt P22607)"
  phosphorylation enrichment: 0.861
- Construct sequence: "ENFDDYMKEVG [FABP4_Y20]"
  Assay target: "FGFR3 (UniProt P22607)"
  phosphorylation enrichment: 0.699
- Construct sequence: "HYPDVYAREQL [ALX3_Y181]"
  Assay target: "FGFR3 (UniProt P22607)"
  phosphorylation enrichment: 0.58
- Construct sequence: "HFVDEYDLTIE [KRAS_Y32_P34L]"
  Assay target: "FGFR3 (UniProt P22607)"
  phosphorylation enrichment: 1.14
- Construct sequence: "ITRDIYETDFF [INSR_Y1185_M1180I_YF]"
  Assay target: "FGFR3 (UniProt P22607)"
  phosphorylation enrichment: 0.738
- Construct sequence: "DKPENYRRLDI [VHL_Y175_V170D]"
  Assay target: "FGFR3 (UniProt P22607)"
  phosphorylation enrichment: 0.467
- Construct sequence: "TGDRPYVCPFD [YY1_Y383]"
  Assay target: "FGFR3 (UniProt P22607)"
  phosphorylation enrichment: 0.635
- Construct sequence: "LSQAKYQIRYR [CRLF1_Y272_F268S]"
  Assay target: "FGFR3 (UniProt P22607)"
  phosphorylation enrichment: 0.603
- Construct sequence: "GFDHSYFFIAT [ESD_Y262_YF]"
  Assay target: "FGFR3 (UniProt P22607)"
  phosphorylation enrichment: 5.72
- Construct sequence: "TVQVAYFTMMM [SPATA17_Y83_YF]"
  Assay target: "FGFR3 (UniProt P22607)"
  phosphorylation enrichment: 1.17
- Construct sequence: "LLKAKYELLNA [POLR3A_Y714]"
  Assay target: "FGFR3 (UniProt P22607)"
  phosphorylation enrichment: 0.493
- Construct sequence: "AKRKGYDMQVD [NEB_Y2770_R2773Q]"
  Assay target: "FGFR3 (UniProt P22607)"
  phosphorylation enrichment: 0.315
- Construct sequence: "DLGIQYKVLKP [CTNNA1_Y177_A179V]"
  Assay target: "FGFR3 (UniProt P22607)"
  phosphorylation enrichment: 0.692
- Construct sequence: "GIMEEYQLPFF [BMPR1A_Y453_V450M_YF]"
  Assay target: "FGFR3 (UniProt P22607)"
  phosphorylation enrichment: 1.32
- Construct sequence: "IHADIYRWFNI [MARS1_Y344]"
  Assay target: "FGFR3 (UniProt P22607)"
  phosphorylation enrichment: 6.99
- Construct sequence: "WKEIEYEVVPD [CPS1_Y634_R638P]"
  Assay target: "FGFR3 (UniProt P22607)"
  phosphorylation enrichment: 0.774
- Construct sequence: "KSVSQYLEMDK [CAGE1_Y438]"
  Assay target: "FGFR3 (UniProt P22607)"
  phosphorylation enrichment: 0.537
- Construct sequence: "LLVVVYKYRCY [PSEN1_Y154_L153V]"
  Assay target: "FGFR3 (UniProt P22607)"
  phosphorylation enrichment: 1.22
- Construct sequence: "KNKNRYKNILP [PTPN11_Y279]"
  Assay target: "FGFR3 (UniProt P22607)"
  phosphorylation enrichment: 0.889
- Construct sequence: "RGNMFYENSFA [EGFR_Y113_YF]"
  Assay target: "FGFR3 (UniProt P22607)"
  phosphorylation enrichment: 0.744
- Construct sequence: "DDDPEYRKFLE [UPF3B_Y160]"
  Assay target: "FGFR3 (UniProt P22607)"
  phosphorylation enrichment: 0.799
- Construct sequence: "KPVEEYANCHL [TF_Y593]"
  Assay target: "FGFR3 (UniProt P22607)"
  phosphorylation enrichment: 0.65
- Construct sequence: "RLLVVYHWTQR [HBD_Y36_P37H]"
  Assay target: "FGFR3 (UniProt P22607)"
  phosphorylation enrichment: 0.75
- Construct sequence: "TTGLIYIGSHD [AASDH_Y870]"
  Assay target: "FGFR3 (UniProt P22607)"
  phosphorylation enrichment: 0.79
- Construct sequence: "SVTCTYSSALN [TP53_Y126_P128S]"
  Assay target: "FGFR3 (UniProt P22607)"
  phosphorylation enrichment: 0.726
- Construct sequence: "NFFEFYVDDPP [GCHFR_Y48_YF]"
  Assay target: "FGFR3 (UniProt P22607)"
  phosphorylation enrichment: 0.925
- Construct sequence: "PIQLFYTRRNT [GHR_Y86]"
  Assay target: "FGFR3 (UniProt P22607)"
  phosphorylation enrichment: 0.884
- Construct sequence: "SIGLGYHKDLQ [NF1_Y1169]"
  Assay target: "FGFR3 (UniProt P22607)"
  phosphorylation enrichment: 0.486
- Construct sequence: "IIRFNYLLDVL [FGFR4_Y237_S232I_YF]"
  Assay target: "FGFR3 (UniProt P22607)"
  phosphorylation enrichment: 0.763
- Construct sequence: "AFPGEYIPTVF [RAC1_Y32]"
  Assay target: "FGFR3 (UniProt P22607)"
  phosphorylation enrichment: 0.617
- Construct sequence: "SQQTYYRVSNM [ABCD1_Y181]"
  Assay target: "FGFR3 (UniProt P22607)"
  phosphorylation enrichment: 5.82
- Construct sequence: "SSKILYHIIKG [CDH17_Y489]"
  Assay target: "FGFR3 (UniProt P22607)"
  phosphorylation enrichment: 0.923
- Construct sequence: "VHKKGYNKLNQ [ZNF676_Y98_E96K]"
  Assay target: "FGFR3 (UniProt P22607)"
  phosphorylation enrichment: 0.516
- Construct sequence: "VSRGRYRPEEC [B4GALT4_Y113_Q116E]"
  Assay target: "FGFR3 (UniProt P22607)"
  phosphorylation enrichment: 0.524
- Construct sequence: "RMDGKYACSFT [FLNB_Y704_T703K_YF]"
  Assay target: "FGFR3 (UniProt P22607)"
  phosphorylation enrichment: 1.45
- Construct sequence: "LNPLVYTLRNA [OR4C12_Y285_V283L]"
  Assay target: "FGFR3 (UniProt P22607)"
  phosphorylation enrichment: 1.04
- Construct sequence: "RLGDLYEEEMR [VIM_Y150]"
  Assay target: "FGFR3 (UniProt P22607)"
  phosphorylation enrichment: 0.487
